Target: Low molecular weight phosphotyrosine protein phosphatase (Homo sapiens)
Test: inhibition of human LMPTP-A enzyme – biochemical, fluorescence intensity, uHTS, primary screen (AID 651560);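 further: plate controls were DMSO wells with enzyme plus substrate for no effect and substrate without enzyme for full effect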
Settings: recombinant LMPTP-A, OMFP fluorogenic substrate, at 20 µM, stronger effect = higher value
Out of some 360,000 compounds screened, about 820 (0.23%) were called active. Many of the other results were omitted from the sample, so actives are more common in it than they were.
test readout: inhibition (%)
Your answer is read as %, so omit the unit and give the number.

Reported inhibition ( Cc1csc(=O)n1CC(=O)Nc1ccc(S(C)(=O)=O)cc1 ) = 0.0764

Reported inhibition ( CC(C)(C)S(=O)(=O)c1ccccc1-c1noc(-c2ccccc2)c1C(N)=O ) = -0.802

Reported inhibition ( O=C(NN=Cc1ccccc1O)NN=Cc1ccccc1O ) = 61.8

Reported inhibition ( C/C(=N\Nc1nc2ccccc2[nH]1)c1cccs1 ) = 1.27

Reported inhibition ( C[C@]12CC[C@H](O)CC1=CCC1C2CC[C@@]2(C)C1CC[C@@H]2NC(=O)CCC(=O)O (some centres not stated) ) = -0.874

Reported inhibition ( COc1cccc(N(C(=O)c2ccn[nH]2)C2(C(=O)Nc3c(C)cccc3C)CCCCC2)c1 ) = -0.749

Reported inhibition ( O=C(NCc1ccc2c(c1)OCO2)c1sccc1Br ) = -0.435

Reported inhibition ( CCOCCCNS(=O)(=O)Cc1ccccc1 ) = -0.147

Reported inhibition ( CCN1CCN(c2ccc(S(=O)(=O)N3CCCCC3)cc2NC(=O)Cc2c(Cl)cccc2Cl)CC1 ) = 1.2

Reported inhibition ( Cc1ccccc1OCC(=O)NNC(=O)c1ccc(-n2cncn2)c([N+](=O)[O-])c1 ) = -1.02

Reported inhibition ( O=C(CC(=O)N/N=C\c1cccc(Cl)c1Cl)NCc1ccccc1 ) = -1.17

Reported inhibition ( O=C(COC(=O)c1ccc([N+](=O)[O-])o1)NC12CC3CC(CC(C3)C1)C2 ) = 1.22

Reported inhibition ( COC(=O)c1sc(C(F)(F)F)c(-c2ccccc2)c1S(=O)(=O)N(C)C ) = -0.149

Reported inhibition ( CCCCNC(=O)Cn1nc(C)c(S(=O)(=O)N2CCOCC2)c1C ) = -0.848

Reported inhibition ( O=C(CCN1C(=O)[C@@H]2Cc3ccccc3CN2C1=O)NCc1ccccc1 ) = 0.0399

Reported inhibition ( CCOc1ccc(OCC)c(NC(=O)CSc2nnc(Cn3cnc4ccccc43)n2C)c1 ) = -0.816

Reported inhibition ( CCOCCCNc1nc(-c2ccccc2)nc2ccccc12 ) = 57.8

Reported inhibition ( O=C(c1cc(-c2ccco2)nc2ccccc12)N(Cc1nnc(-c2ccc(Cl)cc2)o1)C1CC1 ) = 3

Reported inhibition ( CCN1CCN(C(=O)c2cc3cc4ccc(OC)cc4nc3s2)CC1 ) = 0.833

Reported inhibition ( CN(CCC1CCOCC1)C(=O)CC1C(=O)NCCN1Cc1cccc(F)c1 (configuration not stated) ) = -1.38

Reported inhibition ( COc1cc([N+](=O)[O-])ccc1NC(=S)N1CCN(c2ccccn2)CC1 ) = 0.0311

Reported inhibition ( COc1cc(NC(=S)N2CCCC(C)C2)c(OC)cc1Cl (configuration not stated) ) = 0.265

Reported inhibition ( C/C(=N\Nc1ccc(S(N)(=O)=O)cc1[N+](=O)[O-])c1cccs1 ) = 57.1

Reported inhibition ( COC(=O)C(C)C1Sc2ccccc2NC1=O (configuration not stated) ) = 0.652

Reported inhibition ( CN1CCN(Cc2c(C(=O)N3CCc4ccccc4C3)nc3ccc(Cl)cn23)CC1 ) = -1.43

Reported inhibition ( C=CCn1c(=O)c(C(=O)NCc2ccc3c(c2)OCO3)c(O)c2ccccc21 ) = 2.01

Reported inhibition ( CCOC(=O)N1CCN(Cc2nc3ccc([N+](=O)[O-])cc3c(=O)n2-c2cccc(OC)c2)CC1 ) = -0.855

Reported inhibition ( O=C(NCc1ccc2c(c1)OCO2)c1c(O)nc2sccn2c1=O ) = 53.5

Reported inhibition ( COc1cccc(CNC(=O)C(=O)NCCC2CCCCN2S(=O)(=O)c2ccc(C)cc2)c1 (configuration not stated) ) = 0.141

Reported inhibition ( O=C(CO/N=C/c1ccccc1O)NNC(=O)c1ccccc1Cl ) = -0.137

Reported inhibition ( COc1ccc(NC(=O)c2cc(=O)[nH]c3ccccc23)cc1S(=O)(=O)N1CCOCC1 ) = -0.651

Reported inhibition ( COc1cc(Cl)c(C)cc1NC(=O)[C@@H]1CCCN1C(=O)c1cccs1 ) = -1.01

Reported inhibition ( COc1ccc(C#Cc2c(-c3ccc(OC)cc3)oc3ccc(-c4ccc5c(c4)OCO5)cc23)cc1 ) = 0.696

Reported inhibition ( CCn1ccnc1CNC(=O)CC1C(=O)NCCN1Cc1ccc(F)cc1Cl (configuration not stated) ) = 1.38

Reported inhibition ( C=CCOc1cccc(C2C(C(=O)c3ccc(C)o3)=C(O)C(=O)N2c2nnc(C)s2)c1 (configuration not stated) ) = 0.72

Reported inhibition ( Cc1ccc(O/C=C2\OC(=O)c3ccccc32)cc1 ) = -1.45

Reported inhibition ( COc1ccc(Cc2nnc(NC(=O)Cc3cccs3)s2)cc1 ) = 76.7

Reported inhibition ( CCN(CC)C(=O)CS(=O)CC(=O)Nc1cc(OCCOC)c(Cl)cc1Cl (configuration not stated) ) = -0.0342

Reported inhibition ( OCCC#Cc1ccc(CN2CCN(Cc3ccsc3)C(CCO)C2)cc1 (configuration not stated) ) = 1.89

Reported inhibition ( CC(=O)c1ccccc1NC(=O)CC1(CC(=O)O)CCCCC1 ) = -1.06

Reported inhibition ( Cc1ccc(S(=O)(=O)CCC(=O)OCC(=O)N(C)C2CCS(=O)(=O)C2)cc1 (configuration not stated) ) = -1.13

Reported inhibition ( CCC(C)Cn1c(O)cc2nn(-c3nc4ccccc4s3)c(=O)c-2c1C (configuration not stated) ) = 52.5
